Test system: Staphylococcus aureus
Assay: microbe, parasite or virus in culture
Details: ATCC 49951
quantityMeasured: MIC

These solved cases illustrate the format of a correct answer.
C[C@H]1COc2c(N3CC[C@@H](C4(N)CC4)C3)c(F)c(C#N)c3cc(C(=O)O)c(=O)n1c23 = 0.125 µg/mL
Cc1c(N2CCC(C3(N)CC3)C2)c(F)cc2c(Cc3noc(=S)[nH]3)cc(=O)n(C3CC3)c12 (stereo unspecified) = 8 µg/mL
C[C@H]1CCc2c(N3CC[C@@H](C4(N)CC4)C3)c(F)cc3cc(C(=O)O)c(=O)n1c23 = 0.06 µg/mL
Cc1c(N2CC[C@@H](C3(N)CC3)C2)c(F)cc2cc(C(=O)O)c(=O)n(C3CC3)c12 = 0.06 µg/mL
C[C@H]1COc2c(N3CC[C@H](N)C3)c(F)cc3cc(C(=O)O)c(=O)n1c23 = 2 µg/mL
Cc1c(N2CC[C@@H](C3(N)CC3)C2)c(F)cc2cc(-c3ncon3)c(=O)n(C3CC3)c12 = 0.25 µg/mL
C[C@H]1COc2c(N3CCC(=C(Cl)CN)CC3)c(F)cc3cc(C(=O)O)c(=O)n1c23 = 4 µg/mL
COc1cc2cc(C(=O)O)c(=O)n3c2c(c1N1CC[C@@H](C2(N)CC2)C1)OC[C@@H]3C = 32 µg/mL
C[C@H]1COc2c(N3CC[C@@H](C4(N)CC4)C3)cc(C#N)c3cc(C(=O)O)c(=O)n1c23 = 0.25 µg/mL
CO[C@@H]1CC[C@@H](N)[C@H]2CN(c3c(F)cc4cc(C(=O)O)c(=O)n5c4c3OC[C@@H]5C)CC12 (single isomer, unassigned) = ≤ 0.03 µg/mL

Required: MIC, one value per compound below.
1. C[C@H]1COc2c(N3CC4C[C@H](F)C[C@@H](N)[C@H]4C3)c(F)cc3cc(C(=O)O)c(=O)n1c23 (single isomer, unassigned)
2. C[C@H]1COc2c(N3CC4CCC[C@@H](N)[C@H]4C3)c(F)cc3cc(C(=O)O)c(=O)n1c23 (single isomer, unassigned)

≤ 0.03 µg/mL
≤ 0.03 µg/mL

Required: MIC, one value per compound below.
1. C[C@H]1COc2c(N3CC(CN)C4(CCC4)C3)c(F)cc3cc(C(=O)O)c(=O)n1c23 (stereo partly specified)
2. C[C@H]1COc2c(N3C[C@@H]4CCCN[C@@H]4C3)c(F)cc3cc(C(=O)O)c(=O)n1c23
3. Cc1c(N2CC[C@@H]([C@H](C)N)C2)c(F)cc2ccc(=O)n(C3CC3)c12
4. C[C@H]1COc2c(N3CC[C@@H](C4(N)CC4)C3)c(F)cc3cc(C(=O)O)c(=O)n1c23

1: 0.125 µg/mL; 2: 1 µg/mL; 3: ≤ 0.06 µg/mL; 4: 0.25 µg/mL

---

Experiment: in vivo
Conditions: rat, po, 3 mg/kg
quantityMeasured: Cmax at 24 h (nM)
Answers are plain numbers, in nM.

Form field Cmax at 24 h, entry C[C@H]1COc2c(N3CC4CC(F)(F)C[C@@H](N)[C@H]4C3)c(F)cc3cc(C(=O)O)c(=O)n1c23 (single isomer, unassigned) : 1700

---

Experiment: in vivo
Conditions: rat, po, 3 mg/kg
quantityMeasured: Tmax at 24 h (h)
Answers are plain numbers, in h.

Form field Tmax at 24 h, entry C[C@H]1COc2c(N3CC4CC(F)(F)C[C@@H](N)[C@H]4C3)c(F)cc3cc(C(=O)O)c(=O)n1c23 (single isomer, unassigned) : 2

---

Exercise: for every item that follows, state its recorded EC50.
System: HepG2
Assay: cells
Details: Homo sapiens, HepG2, 72 h
One number for each entry, in µM.

Cc1c(N2CC[C@@H]([C@H](C)N)C2)c(F)cc2ccc(=O)n(C3CC3)c12 = 93

Field: next compound
Form field EC50, entry `Cc1c(N2CC[C@@H]([C@H](C)N)C2)c(F)cc2cc(O)c(=O)n(C3CC3)c12` : 74

---

Test: in vivo
Details: rat, 5 mg/kg
Exercise: for every item that follows, state its recorded clearance at 24 h.

These solved cases illustrate the format of a correct answer.
C[C@H](N)[C@@H]1CCN(c2c(F)cc3cc(C(=O)O)c(=O)n4c3c2OC[C@@H]4C)C1 = 18.5 mL/min/kg
C[C@H]1COc2c(N3CC[C@@H](C4(N)CC4)C3)c(F)cc3cc(C(=O)O)c(=O)n1c23 = 3.26 mL/min/kg

Field: next compound
Form field clearance at 24 h, entry Cc1c(N2CCC(C3(N)CC3)C2)c(F)cc2c(CC(=O)N(C)C)cc(=O)n(C3CC3)c12 (stereo not drawn) : 49.3 mL/min/kg

---

Test: physchem
Settings: octanol/water, pH 7.4
quantityMeasured: logD

C[C@H]1COc2c(N3CC4OCC[C@@H](N)[C@H]4C3)c(F)cc3cc(C(=O)O)c(=O)n1c23 (single isomer, unassigned) = -1.66
C[C@H]1COc2c(N3CC[C@@H](C4(N)CC4)C3)c(F)c(F)c3cc(C(=O)O)c(=O)n1c23 = -0.85

Required: logD, one value per compound below.
1. Cc1c(N2CCC(C3(N)CC3)C2)c(F)cc2c(Cc3noc(=O)[nH]3)cc(=O)n(C3CC3)c12 (centres undefined)
2. Cc1c(N2CCC(C3(N)CC3)C2)c(F)cc2c(-c3cc(O)no3)cc(=O)n(C3CC3)c12 (centres undefined)
3. C[C@H]1COc2c(N3CCC(=C(Cl)CN)CC3)c(F)cc3cc(C(=O)O)c(=O)n1c23
4. C[C@H]1COc2c(N3C[C@H]4[C@H](C3)OCC[C@@H]4N)c(F)cc3cc(C(=O)O)c(=O)n1c23

-0.74
0.29
-0.39
-1.72

Required: logD, one value per compound below.
1. Cc1c(N2CC[C@@H](C3(N)CC3)C2)c(F)cc2cc(-c3ncon3)c(=O)n(C3CC3)c12
2. Cc1c(N2CC[C@@H](C3(N)CC3)C2)c(F)cc2cc(C#N)c(=O)n(C3CC3)c12
3. Cc1c(N2CC[C@@H](C3(N)CC3)C2)c(F)cc2cc(-c3noc(=O)[nH]3)c(=O)n(C3CC3)c12
4. Cc1c(N2CCC(C3(N)CC3)C2)c(F)cc2c(CC(=O)N(C)C)cc(=O)n(C3CC3)c12 (centres undefined)
5. CO[C@@H]1CC[C@@H](N)[C@H]2CN(c3c(F)cc4cc(C(=O)O)c(=O)n5c4c3OC[C@@H]5C)CC12 (single isomer, unassigned)
6. CO[C@@H]1CC2CN(c3c(F)cc4cc(C(=O)O)c(=O)n5c4c3OC[C@@H]5C)C[C@@H]2[C@H](N)C1 (single isomer, unassigned)

1. 1.46
2. 1.19
3. -0.32
4. 0.27
5. -1.28
6. -1.5

Required: logD, one value per compound below.
1. C[C@H]1COc2c(N3CC[C@@H](C4(N)CC4)C3)c(F)c(N)c3cc(C(=O)O)c(=O)n1c23
2. Cc1c(N2CCC(C3(N)CC3)C2)c(F)cc2cc(C(=O)O)c(=O)n(C3CC3)c12 (centres undefined)

-0.97
-0.97

---

Exercise: for every item that follows, state its recorded fraction unbound at 4 h, 10 µM.
Experiment: in vitro
Conditions: human, plasma
Numbers only.

These solved cases illustrate the format of a correct answer.
Cc1c(N2CCC(C3(N)CC3)C2)c(F)cc2cc(C(=O)O)c(=O)n(C3CC3)c12 (centres undefined) = 0.22
C[C@H](N)[C@@H]1CCN(c2c(F)cc3cc(C(=O)O)c(=O)n4c3c2OC[C@@H]4C)C1 = 0.8
C[C@H]1COc2c(N3CC4CC(F)(F)C[C@@H](N)[C@H]4C3)c(F)cc3cc(C(=O)O)c(=O)n1c23 (single isomer, unassigned) = 0.18

Field: next compound
Form field fraction unbound at 4 h, 10 µM, entry Cc1c(N2CCC(C3(N)CC3)C2)c(F)cc2c(CC(=O)N(C)C)cc(=O)n(C3CC3)c12 (centres undefined) : 0.57

---

Test: in vivo
Details: rat, iv, 3.35 mg/kg
quantityMeasured: half-life at 24 h (h)
Answers are plain numbers, in h.

Form field half-life at 24 h, entry `Cc1c(N2CC[C@@H](C3(N)CC3)C2)c(F)cc2cc(C(=O)O)c(=O)n(C3CC3)c12` : 2.56

---

Experiment: in vivo
Details: mouse, po, 5 mg/kg
quantityMeasured: Tmax at 24 h

Form field Tmax at 24 h, entry `C[C@H]1COc2c(N3CC[C@@H](C4(N)CC4)C3)c(F)cc3cc(C(=O)O)c(=O)n1c23` : 2 h

---

Assay: in vivo
Conditions: dog, po, 1 mg/kg
quantityMeasured: AUC(0-inf) at 24 h (µM·h)
Numbers only, in µM·h.

Form field AUC(0-inf) at 24 h, entry `C[C@H]1COc2c(N3CC[C@@H](C4(N)CC4)C3)c(F)cc3cc(C(=O)O)c(=O)n1c23` : 19
